Target: Adrenergic receptor alpha-2 (Rattus norvegicus, UniProt P22086+P19328+P22909)
Sequence (P22086 whole entry): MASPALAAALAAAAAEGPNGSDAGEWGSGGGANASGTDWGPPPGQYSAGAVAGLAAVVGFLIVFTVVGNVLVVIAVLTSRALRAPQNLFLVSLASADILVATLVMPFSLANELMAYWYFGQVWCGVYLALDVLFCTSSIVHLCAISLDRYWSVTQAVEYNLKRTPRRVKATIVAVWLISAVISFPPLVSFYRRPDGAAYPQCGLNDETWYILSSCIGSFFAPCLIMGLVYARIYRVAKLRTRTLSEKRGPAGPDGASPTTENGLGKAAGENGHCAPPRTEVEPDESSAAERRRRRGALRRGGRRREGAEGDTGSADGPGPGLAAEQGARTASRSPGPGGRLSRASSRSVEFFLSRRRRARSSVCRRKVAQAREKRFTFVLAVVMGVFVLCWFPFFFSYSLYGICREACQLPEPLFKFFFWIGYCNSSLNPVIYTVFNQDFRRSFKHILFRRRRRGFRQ
Sequence (P19328 whole entry): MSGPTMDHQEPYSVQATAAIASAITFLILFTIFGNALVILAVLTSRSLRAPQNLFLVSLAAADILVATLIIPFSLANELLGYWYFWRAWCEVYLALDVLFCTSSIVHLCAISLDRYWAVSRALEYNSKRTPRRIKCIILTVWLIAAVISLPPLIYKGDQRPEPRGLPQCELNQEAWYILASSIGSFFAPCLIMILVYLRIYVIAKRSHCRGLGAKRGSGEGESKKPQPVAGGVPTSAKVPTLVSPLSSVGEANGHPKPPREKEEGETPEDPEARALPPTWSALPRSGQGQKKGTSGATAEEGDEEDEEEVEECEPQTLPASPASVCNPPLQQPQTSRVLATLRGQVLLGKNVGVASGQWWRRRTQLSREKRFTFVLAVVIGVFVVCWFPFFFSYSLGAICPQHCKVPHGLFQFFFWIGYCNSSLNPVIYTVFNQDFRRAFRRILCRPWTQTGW
Sequence (P22909 whole entry): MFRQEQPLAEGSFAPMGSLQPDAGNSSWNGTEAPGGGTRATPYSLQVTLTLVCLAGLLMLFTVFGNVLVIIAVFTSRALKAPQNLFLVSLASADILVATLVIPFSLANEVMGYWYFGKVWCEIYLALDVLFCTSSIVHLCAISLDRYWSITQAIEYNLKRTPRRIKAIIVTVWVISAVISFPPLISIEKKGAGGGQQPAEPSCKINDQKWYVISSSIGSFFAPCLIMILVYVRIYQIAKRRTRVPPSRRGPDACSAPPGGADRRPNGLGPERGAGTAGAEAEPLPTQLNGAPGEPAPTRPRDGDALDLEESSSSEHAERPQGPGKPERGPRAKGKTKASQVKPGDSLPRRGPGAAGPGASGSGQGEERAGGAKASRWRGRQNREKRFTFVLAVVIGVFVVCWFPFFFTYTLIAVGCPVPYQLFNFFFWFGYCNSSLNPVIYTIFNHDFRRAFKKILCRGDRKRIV
Experiment: Displacement of [3H]rauwolscine from alpha-2 adrenergic receptor in rat cerebral cortex
Type: tissue-based
Returns: string. Value is met if measured Ki is below 100 nM, and not met if it is greater than or equal to it.

Worked examples follow.
- compound: "Cc1ccc(-c2nn(CCCCN3CCN(CC4COc5ccccc5O4)CC3)c(=O)c3ccccc23)cc1 (configuration not stated)"
  category label: "not met"
- compound: "COc1ccccc1N1CCN(CCCCCCCn2nc(-c3ccc(C)cc3)c3ccccc3c2=O)CC1"
  category label: "not met"
- compound: "Cc1ccc(-c2nn(CCCCN3CCN(c4ncccn4)CC3)c(=O)c3ccccc23)cc1"
  category label: "not met"

Input `COc1ccccc1N1CCN(CCCCn2nc(-c3ccc(C)cc3)c3ccccc3c2=O)CC1` ; condition: Ki strictly below 100 nM. Does it hold?
met

Is the reported Ki for `Cc1ccc(-c2nn(CCCCN3CCN(c4ccccc4OC(C)C)CC3)c(=O)c3ccccc23)cc1` strictly below 100 nM?
met

Could you please tell me whether Ki recorded for `Cc1ccc(-c2nn(CCCCCCCN3CCN(c4cccc(C(F)(F)F)c4)CC3)c(=O)c3ccccc23)cc1` is less than 100 nM?
not met

# TODO verify Ki < 100 nM strictly for this compound: `Cc1ccc(-c2nn(CCCCN3CCN(c4cccc(Cl)c4)CC3)c(=O)c3ccccc23)cc1`
not met
